Tested on: Cyperus serotinus
Experiment: Test Example 1: herbicidal effects, paddy-field pot test
Type: in vivo
Conditions: chemical dosage 10 g/a; wettable powder applied 3 days after transplanting; judged after 25 days
Could you please report measured Herbicidal effects Cyperus serotinus for the items listed next?

>  <Compound>
Cc1ccc(S(=O)(=O)Oc2cc(Cl)nnc2Oc2ccccc2C2CC2)cc1

>  <Test target>
Cyperus serotinus

>  <Test readout>
Herbicidal effects Cyperus serotinus

>  <Observed>
5 (Growth inhibition rate; 91 to 100%)

$$$$

Take each entry in turn and give its Herbicidal effects Cyperus serotinus.
1. CC1CC1c1ccccc1Oc1nnc(Cl)cc1O (stereo not shown)
2. Oc1cc(Cl)nnc1Oc1cccc2ccoc12
3. Oc1cc(Cl)nnc1Oc1c(Br)ccc2ccoc12
4. Cc1cccc(C2CC2)c1Oc1nnc(Cl)cc1O
5. CC(C)c1cccc(F)c1Oc1nnc(Cl)cc1O
6. Cc1ccc2c(c1Oc1nnc(Cl)cc1O)OCC2
7. CC(C)(C)c1cccc(C2CC2)c1Oc1nnc(Cl)cc1O

1: 4 (Growth inhibition rate; 71 to 90%); 2: 5 (Growth inhibition rate; 91 to 100%); 3: 5 (Growth inhibition rate; 91 to 100%); 4: 5 (Growth inhibition rate; 91 to 100%); 5: 5 (Growth inhibition rate; 91 to 100%); 6: 5 (Growth inhibition rate; 91 to 100%); 7: 4 (Growth inhibition rate; 71 to 90%)

Parameter requested: Herbicidal effects Cyperus serotinus. Apply to each item below.
1. CC(C)Oc1ccccc1Oc1nnc(Cl)cc1O
2. Oc1cc(Cl)nnc1Oc1cccc2c1CCCC2
3. Oc1cc(Cl)nnc1Oc1cccc2c1C1CC1C2 (stereo not shown)
4. Cc1cccc(C(C)C)c1Oc1nnc(Cl)cc1O
5. Oc1cc(Cl)nnc1Oc1c(Br)cccc1C1CC1
6. CCCS(=O)(=O)Oc1cc(Cl)nnc1Oc1ccccc1C
7. Oc1cc(Cl)nnc1Oc1ccccc1I
8. CCc1cccc(C)c1Oc1nnc(Cl)cc1O

1. 4 (Growth inhibition rate; 71 to 90%)
2. 5 (Growth inhibition rate; 91 to 100%)
3. 5 (Growth inhibition rate; 91 to 100%)
4. 5 (Growth inhibition rate; 91 to 100%)
5. 5 (Growth inhibition rate; 91 to 100%)
6. 5 (Growth inhibition rate; 91 to 100%)
7. 5 (Growth inhibition rate; 91 to 100%)
8. 5 (Growth inhibition rate; 91 to 100%)

Below are some compounds; for each one, tell me its Herbicidal effects Cyperus serotinus.
1. O=C(Oc1cc(Cl)nnc1Oc1ccccc1C1CC1)c1ccccc1
2. Oc1cc(Cl)nnc1Oc1ccccc1C1CC1
3. CCc1cccc(Br)c1Oc1nnc(Cl)cc1O
4. Oc1cc(Cl)nnc1Oc1ccccc1OC(F)(F)F
5. Oc1cc(Cl)nnc1Oc1cccc2c1CCO2
6. Cc1cccc(I)c1Oc1nnc(Cl)cc1O

1. 5 (Growth inhibition rate; 91 to 100%)
2. 5 (Growth inhibition rate; 91 to 100%)
3. 5 (Growth inhibition rate; 91 to 100%)
4. 4 (Growth inhibition rate; 71 to 90%)
5. 4 (Growth inhibition rate; 71 to 90%)
6. 5 (Growth inhibition rate; 91 to 100%)

----------
Tested on: barnyardgrass (Echinochloa oryzicola Vasing.)
Experiment: Test Example 1: herbicidal effects, paddy-field pot test
Format: in vivo
Conditions: chemical dosage 12.5 g/a; wettable powder applied 3 days after transplanting; judged after 25 days
Test readout: Herbicidal effects Barnyard grass

For each entry beneath this line, provide reported Herbicidal effects Barnyard grass.
1. Cc1ccc(C(C)C)c(Oc2nnc(Cl)cc2O)c1 [Example 212]
2. Oc1cc(Cl)nnc1Oc1c(Cl)cccc1Cl [Example 240]
3. CCCc1ccccc1Oc1nnc(Cl)cc1O [Example 56]
4. CCCc1cccc(F)c1Oc1nnc(Cl)cc1O [Example 234]
5. Cc1ccc(Cl)cc1Oc1nnc(Cl)cc1O [Example 204]
6. CCc1cccc(CC)c1Oc1nnc(Cl)cc1O [Example 268]
7. Oc1cc(Cl)nnc1Oc1ccccc1C1CCCC1 [Example 88]

1: 1 (Growth inhibition rate; 11 to 30%); 2: 2 (Growth inhibition rate; 31 to 50%); 3: 0 (Growth inhibition rate; 0 to 10%); 4: 0 (Growth inhibition rate; 0 to 10%); 5: 2 (Growth inhibition rate; 31 to 50%); 6: 0 (Growth inhibition rate; 0 to 10%); 7: 0 (Growth inhibition rate; 0 to 10%)

----------
Test system: Cyperus serotinus
Experiment: Test Example 4: herbicidal effects of mixed wettable powder, paddy-field pot test
Format: in vivo
Conditions: derivative 5 g/a, no second compound; after 25 days
Test readout: Herbicidal effects Cyperus serotinus

// worked examples, Herbicidal effects Cyperus serotinus included
>  <Compound>
N#CC1CC1c1ccccc1Oc1nnc(Cl)cc1O (stereo not drawn) [Compound No. 226]

>  <Test readout>
Herbicidal effects Cyperus serotinus

>  <Observed>
5 (Growth inhibition rate; 96 to 100%)

$$$$
>  <Compound>
COc1ccc(C)cc1Oc1nnc(Cl)cc1O [Example 16]

>  <Test readout>
Herbicidal effects Cyperus serotinus

>  <Observed>
4 (Growth inhibition rate; 7.6 to 95%)

$$$$

Provide the reported Herbicidal effects Cyperus serotinus of each entry below, same order.
1. Cc1ccccc1Oc1nnc(Cl)cc1O [Example 1]
2. Oc1cc(Cl)nnc1Oc1c(Cl)cccc1C1CC1 [Example 245]
3. Cc1cccc(Br)c1Oc1nnc(Cl)cc1O [Example 249]

1. 4 (Growth inhibition rate; 7.6 to 95%)
2. 4 (Growth inhibition rate; 7.6 to 95%)
3. 5 (Growth inhibition rate; 96 to 100%)

Give me Herbicidal effects Cyperus serotinus for each of these compounds, listed below.
1. Cc1cccc(C2CC2)c1Oc1nnc(Cl)cc1O [Example 23]
2. Oc1cc(Cl)nnc1Oc1ccccc1C1CC1 [Example 6]
3. Cc1cc(C)c(C2CC2)c(Oc2nnc(Cl)cc2O)c1 [Example 288]

1: 5 (Growth inhibition rate; 96 to 100%); 2: 5 (Growth inhibition rate; 96 to 100%); 3: 4 (Growth inhibition rate; 7.6 to 95%)

Give its Herbicidal effects Cyperus serotinus value. Item: Oc1cc(Cl)nnc1Oc1cccc2c1CCC2 [Example 171]
5 (Growth inhibition rate; 96 to 100%)

----------
Structures can show the parent of a compound that is named as a salt.
Would you mind telling me the reported melting point of each entry?

Example entries and their recorded answers appear below.
>  <Compound>
Cc1ccc(S(=O)(=O)Oc2ccccc2Oc2nnc(Cl)cc2OS(=O)(=O)c2ccc(C)cc2)cc1 (as salt: benzene sulfonate)

>  <melting point>
125.5 to 126.5 °C

$$$$
>  <Compound>
Cc1cccc(C2CC2)c1Oc1nnc(Cl)cc1OC(=O)c1cnccc1C(F)(F)F

>  <melting point>
92 to 93 °C

$$$$
>  <Compound>
COc1ccc(F)cc1Oc1nnc(Cl)cc1O

>  <melting point>
187 to 191 °C

$$$$
>  <Compound>
CON=C(C)c1ccccc1Oc1nnc(Cl)cc1O

>  <melting point>
165 to 167 °C

$$$$
>  <Compound>
Oc1cc(Cl)nnc1Oc1ccccc1C1CCC1

>  <melting point>
188 to 189 °C

$$$$

I have 5 compounds here; please give me melting point for each one.
1. CCCCCCCCCCCCCCC(=O)Oc1cc(Cl)nnc1Oc1c(C)cccc1C1CC1
2. COc1cccc(Oc2nnc(Cl)cc2OC(=O)c2ccccc2C)c1
3. Cc1cccc(Oc2nnc(Cl)cc2O)c1C1CC1
4. Cc1cc(C)c(Oc2nnc(Cl)cc2O)c(C)c1
5. Oc1cc(Cl)nnc1Oc1cccc2c1CC1CC21 (stereo not shown)

["35 to 37 °C", "66 to 67 °C", "197 to 198 °C", "235 to 239 °C", "211 to 213 °C"]

Would you mind listing melting point for each of the following compounds?
1. Cc1cccc(C2CC2)c1Oc1nnc(Cl)cc1OC(=O)c1ccc(C(F)(F)F)cc1
2. Cc1ccc(C(=O)O)cc1Oc1nnc(Cl)cc1O
3. Oc1cc(Cl)nnc1Oc1ccccc1-c1nc2ccccc2s1
4. Cc1ccccc1Oc1nnc(Cl)cc1OC(=O)N(C)C
5. Cc1cc(C)c(C2CC2)c(Oc2nnc(Cl)cc2O)c1C
6. Cc1cc(F)ccc1Oc1nnc(Cl)cc1O

["127 to 128 °C", "238 to 240 °C", "215 to 217 °C", "107 to 109 °C", "212 to 219 °C", "249 to 250 °C"]

Parameter requested: melting point. Apply to each item below.
1. Oc1cc(Cl)nnc1Oc1cc(F)ccc1C1CC1
2. Oc1cc(Cl)nnc1Oc1cccc(Cl)c1Cl
3. Cc1ccc(S(=O)(=O)Oc2cc(Cl)nnc2Oc2cc(C)ccc2C(C)C)cc1

1: 227 to 228 °C; 2: 233 to 238 °C; 3: 90 to 92 °C

----------
System: Scirpus joncoides
Experiment: Test Example 1: herbicidal effects, paddy-field pot test
Type: in vivo
Conditions: chemical dosage 20 g/a; wettable powder applied 3 days after transplanting; judged after 25 days
For each entry below, report its Herbicidal effects Scirpus joncoides value.

Known Herbicidal effects Scirpus joncoides results, listed for orientation:
>  <Compound structure string>
CC(C)Oc1ccccc1Oc1nnc(Cl)cc1O

>  <Herbicidal effects Scirpus joncoides>
4 (Growth inhibition rate; 71 to 90%)

$$$$
>  <Compound structure string>
CCOC(=O)Oc1cc(Cl)nnc1Oc1ccccc1C1CC1

>  <Herbicidal effects Scirpus joncoides>
5 (Growth inhibition rate; 91 to 100%)

$$$$
>  <Compound structure string>
Cc1ccc(S(=O)(=O)Oc2cc(Cl)nnc2Oc2ccccc2C2CC2)cc1

>  <Herbicidal effects Scirpus joncoides>
5 (Growth inhibition rate; 91 to 100%)

$$$$
>  <Compound structure string>
Cc1cc(C)c(C2CC2)c(Oc2nnc(Cl)cc2O)c1

>  <Herbicidal effects Scirpus joncoides>
5 (Growth inhibition rate; 91 to 100%)

$$$$
>  <Compound structure string>
Cc1cccc(I)c1Oc1nnc(Cl)cc1O

>  <Herbicidal effects Scirpus joncoides>
5 (Growth inhibition rate; 91 to 100%)

$$$$
>  <Compound structure string>
Oc1cc(Cl)nnc1Oc1c(Cl)cccc1I

>  <Herbicidal effects Scirpus joncoides>
4 (Growth inhibition rate; 71 to 90%)

$$$$
>  <Compound structure string>
Cc1ccccc1Oc1nnc(Br)cc1O

>  <Herbicidal effects Scirpus joncoides>
4 (Growth inhibition rate; 71 to 90%)

$$$$
>  <Compound structure string>
CC(C)(C)c1cccc(C2CC2)c1Oc1nnc(Cl)cc1O

>  <Herbicidal effects Scirpus joncoides>
4 (Growth inhibition rate; 71 to 90%)

$$$$

Below is a list of compounds. For each, state its recorded Herbicidal effects Scirpus joncoides.
1. Cc1ccc2ccoc2c1Oc1nnc(Cl)cc1O
2. Oc1cc(Cl)nnc1Oc1c(Br)ccc2c1CCC2

5 (Growth inhibition rate; 91 to 100%)
5 (Growth inhibition rate; 91 to 100%)
